TARGET UNDER TEST: Jak2 (UniProt O60674)
Sequence (O60674 whole entry, looked up): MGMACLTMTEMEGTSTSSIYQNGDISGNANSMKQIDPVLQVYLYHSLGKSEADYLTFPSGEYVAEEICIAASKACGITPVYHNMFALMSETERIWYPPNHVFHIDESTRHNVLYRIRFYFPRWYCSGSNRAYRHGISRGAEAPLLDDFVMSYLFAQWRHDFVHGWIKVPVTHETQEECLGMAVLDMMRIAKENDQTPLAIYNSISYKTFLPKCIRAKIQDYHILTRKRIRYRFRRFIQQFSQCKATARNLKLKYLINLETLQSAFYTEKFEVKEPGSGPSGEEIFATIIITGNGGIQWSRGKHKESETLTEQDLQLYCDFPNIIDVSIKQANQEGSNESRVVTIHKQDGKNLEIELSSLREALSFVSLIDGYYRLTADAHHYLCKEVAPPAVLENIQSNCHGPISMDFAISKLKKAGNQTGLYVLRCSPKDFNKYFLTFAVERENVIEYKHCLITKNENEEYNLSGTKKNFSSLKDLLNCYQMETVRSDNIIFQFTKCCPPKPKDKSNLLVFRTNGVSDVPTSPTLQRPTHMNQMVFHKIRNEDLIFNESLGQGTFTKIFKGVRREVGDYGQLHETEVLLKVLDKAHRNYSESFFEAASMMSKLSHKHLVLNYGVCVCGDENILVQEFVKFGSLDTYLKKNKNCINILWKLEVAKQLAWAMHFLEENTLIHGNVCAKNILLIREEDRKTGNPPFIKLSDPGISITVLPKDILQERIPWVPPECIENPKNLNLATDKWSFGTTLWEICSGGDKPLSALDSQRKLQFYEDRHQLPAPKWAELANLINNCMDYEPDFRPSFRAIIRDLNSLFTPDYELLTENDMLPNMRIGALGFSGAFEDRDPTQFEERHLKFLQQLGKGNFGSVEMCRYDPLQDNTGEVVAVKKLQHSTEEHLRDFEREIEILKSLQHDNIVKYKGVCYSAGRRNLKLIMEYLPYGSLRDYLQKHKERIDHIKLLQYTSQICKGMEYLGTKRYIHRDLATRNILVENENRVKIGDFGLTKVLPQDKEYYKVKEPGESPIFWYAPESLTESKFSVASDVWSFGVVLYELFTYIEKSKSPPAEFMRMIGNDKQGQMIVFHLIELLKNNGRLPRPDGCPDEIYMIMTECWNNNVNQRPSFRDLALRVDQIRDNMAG
METHOD: phosphorylation enrichment, bacterial display (enrichment ratio); higher = better substrate or ligand; peptides without Tyr show the background;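 also: 11-residue human phosphosite peptides and single-mutation variants displayed on the E. coli surface, counted by deep sequencing, each peptide's frequency after selection divided by its frequency in the unselected input library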;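 also: frequency after pTyr selection over input frequency; kinase dosed for 20-30% of maximal phosphorylation in three min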
METRIC NAME: phosphorylation enrichment

Solved cases below.
{"columns": ["RECORD SEQUENCE", "METRIC NAME", "TEST VALUE"],
 "data": [
  ["DFRTTYVNANE [KCNH2_Y475_N470D]", "phosphorylation enrichment", 0.649],
  ["LERYIYNREEF [HLA-DPB1_Y59]", "phosphorylation enrichment", 0.874],
  ["VIKDKYPKVRF [APTX_Y209_A212V_YF]", "phosphorylation enrichment", 0.734],
  ["CTTIHYNFRCN [TP53_Y234_M237R_YF]", "phosphorylation enrichment", 0.56],
  ["FKEDPYLVVNP [MCM6_Y810_E806K_YF]", "phosphorylation enrichment", 1.13],
  ["KNEVLYDGENH [ARFGEF1_Y314]", "phosphorylation enrichment", 0.763],
  ["RHSGSYLVTSV [APC_Y2838]", "phosphorylation enrichment", 0.963],
  ["LEQQKYTVTVD [IKBKB_Y199]", "phosphorylation enrichment", 0.954]
]}

Below are some sequences; for each one, tell me its phosphorylation enrichment.
1. EVTLTYATGIK [NFKB1_Y485_T489I]
2. GGKFSYLKVGH [GRM3_Y480_YF]
3. CTTIHYNFMCI [TP53_Y234_N239I_YF]
4. APQFTYTQGGQ [FLNA_Y1763_A1764T_YF]
5. EVTLTYATGTK [NFKB1_Y485]
6. FADTAYNFRHG [PAH_Y166_I164T_YF]
7. VFFDLYGGEKF [PTPN11_Y66_D61V_YF]

Reply text:
[1.06, 0.642, 0.969, 0.552, 0.75, 0.45, 0.835]

Below are some sequences; for each one, tell me its phosphorylation enrichment.
1. EAVKNYTDKRG [PBRM1_Y672]
2. LTVVIYVLIGR [EPHA3_Y561]
3. YFCRWYRNRKS [EREG_Y144]

Reply text:
0.56
0.844
0.683

Below are some sequences; for each one, tell me its phosphorylation enrichment.
1. VFFFSYLLKNH [PTEN_Y180_YF]
2. IRKDLYSNNVL [ACTC1_Y296_A297S]
3. GIPIQYPIISE [NOG_Y222_W217G]

Reply text:
[1.11, 0.471, 1.02]

Below are some sequences; for each one, tell me its phosphorylation enrichment.
1. YSGIYYKPESL [L2HGDH_Y103_H98Y]
2. RAADYYSQQMA [GBP6_Y334]
3. CENCHYPIVPL [LCK_Y25]
4. DSFATYFRRVL [H2BW1_Y84]
5. EAAFVYVISSA [WNT4_Y113_A114V]

Reply text:
1. 6.33
2. 0.672
3. 0.643
4. 1
5. 1.33

Below are some sequences; for each one, tell me its phosphorylation enrichment.
1. CDTKLYTSAPN [DNTTIP2_Y427]
2. LADKPYTFEDF [FXN_Y118_YF]
3. EYLHKYKGFKI [SYNE1_Y6953_Q6951H]

Reply text:
1: 0.936; 2: 0.988; 3: 1.01

* * *

TARGET UNDER TEST: Fyn (UniProt P06241)
Sequence (P06241 whole entry, looked up): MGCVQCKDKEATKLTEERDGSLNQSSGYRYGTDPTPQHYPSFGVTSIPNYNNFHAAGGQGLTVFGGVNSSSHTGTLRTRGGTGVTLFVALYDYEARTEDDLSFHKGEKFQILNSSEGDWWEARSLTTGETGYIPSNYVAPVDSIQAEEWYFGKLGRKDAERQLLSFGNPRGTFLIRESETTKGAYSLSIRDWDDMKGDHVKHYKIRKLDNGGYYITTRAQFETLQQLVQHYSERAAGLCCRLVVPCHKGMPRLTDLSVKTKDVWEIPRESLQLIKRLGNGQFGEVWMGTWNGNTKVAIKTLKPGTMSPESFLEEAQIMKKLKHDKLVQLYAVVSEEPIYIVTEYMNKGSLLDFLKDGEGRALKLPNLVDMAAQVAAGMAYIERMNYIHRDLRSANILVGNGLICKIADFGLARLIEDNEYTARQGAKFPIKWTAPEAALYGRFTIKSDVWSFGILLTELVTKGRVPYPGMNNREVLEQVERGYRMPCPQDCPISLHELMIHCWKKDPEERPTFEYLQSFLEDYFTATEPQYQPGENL
METHOD: phosphorylation enrichment, bacterial display (enrichment ratio); higher = better substrate or ligand; peptides without Tyr show the background
Bucketed by reported phosphorylation enrichment, buckets being LOW: < 0.5; MID: ≥ 0.5 and < 0.6; HIGH: ≥ 0.6

Please review the following examples before continuing.
{"columns": ["RECORD SEQUENCE", "TARGET UNDER TEST", "LABEL VALUE"],
 "data": [
  ["VNRSGYTLIRK [ATP6V0A2_Y688]", "Fyn (UniProt P06241)", "MID"],
  ["QNTGYYYDLYG [PTPN11_Y62_D61Y]", "Fyn (UniProt P06241)", "HIGH"]
]}

Inquiry: Category of QKMADYSNKLF [PDPR_Y104_YF] , please.
Reply text: HIGH

Inquiry: Category of SPDMLYQYLKQ [RPAP3_Y567] , please.
Reply text: HIGH

Inquiry: Category of CSEEMYCLMLQ [RET_Y981_R982C] , please.
Reply text: HIGH

Inquiry: Category of VEDPEYAVTQP [STOML2_Y124_L129P] , please.
Reply text: MID

Inquiry: Category of LEQQKYTVTVD [IKBKB_Y199] , please.
Reply text: HIGH

Inquiry: Category of DDKEFYSVHNK [MET_Y1235_Y1230D_YF] , please.
Reply text: LOW

Inquiry: Category of `ENAGFYFRISA` , please.
Reply text: LOW

Inquiry: Category of LTEEKYELKEG [TREM1_Y29] , please.
Reply text: HIGH
